study-target: UniProt Q99500
Sequence (Q99500 whole entry, species assumed): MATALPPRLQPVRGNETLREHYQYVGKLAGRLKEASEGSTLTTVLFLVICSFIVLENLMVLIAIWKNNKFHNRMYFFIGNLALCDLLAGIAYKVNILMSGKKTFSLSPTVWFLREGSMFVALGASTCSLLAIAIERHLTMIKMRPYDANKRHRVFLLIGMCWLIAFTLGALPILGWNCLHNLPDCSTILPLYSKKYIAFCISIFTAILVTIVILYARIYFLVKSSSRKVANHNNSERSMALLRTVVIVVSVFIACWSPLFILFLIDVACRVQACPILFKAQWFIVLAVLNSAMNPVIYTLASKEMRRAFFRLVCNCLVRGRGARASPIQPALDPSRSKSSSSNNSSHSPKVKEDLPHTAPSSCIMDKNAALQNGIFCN
measurement-notes: Receptor binding assay, [33P]sphingosine 1-phosphate competition, S1P3 membranes, WGA SPA beads
particulars: 384 well-plate; read-out: S1P3 binding Ki (M) (384 well-plate)
Counter-ions that a name gives are not always drawn.
Let's look at some compounds and their measured Ki.

compound: COCc1cc(-c2nc(-c3cc(F)c(CN(C)CC(=O)O)c(F)c3)no2)ccc1-c1ccccc1C [Example 151, hydrochloride salt]
study-target: UniProt Q99500
unit-string: M
Ki: 3.9e-07
//
compound: COCc1cc(-c2nc(-c3cccc(CN(CCO)CCO)c3)no2)ccc1-c1ccccc1C [Example 40]
study-target: UniProt Q99500
unit-string: M
Ki: 9.69e-07
//
compound: COCc1cc(-c2nc(-c3ccc(CNCC(=O)O)c(F)c3)no2)ccc1-c1ccccc1C [Example 83, hydrochloride salt]
study-target: UniProt Q99500
unit-string: M
Ki: 2.75e-07
//
compound: COCc1cc(-c2nc(-c3ccc(CN(C)CC(=O)O)c(C)c3)no2)ccc1-c1ccccc1C [Example 125]
study-target: UniProt Q99500
unit-string: M
Ki: 1.92e-06
//
compound: COCc1cc(-c2nc(-c3cccc(CN(C)CC(=O)O)c3)no2)ccc1-c1ccccc1F [Example 10, hydrochloride salt]
study-target: UniProt Q99500
unit-string: M
Ki: 1.22e-07
//
compound: COCc1cc(-c2nc(-c3cc(CN(C)CC(=O)O)cc(F)c3F)no2)ccc1-c1ccccc1C [Example 126, hydrochloride salt]
study-target: UniProt Q99500
unit-string: M
Ki: 6.55e-07
//
compound: COCc1cc(-c2nc(-c3cccc(CN(CC(=O)O)CC(C)C)c3)no2)ccc1-c1ccccc1C [Example 59, hydrochloride salt]
study-target: UniProt Q99500
unit-string: M
Ki: 8.49e-07
//
compound: COCc1cc(-c2nc(-c3cccc(CN(C)CC(=O)O)c3)no2)ccc1-c1cc(F)ccc1Cl [Example 65, hydrochloride salt]
study-target: UniProt Q99500
unit-string: M
Ki: 3.68e-07
//
compound: COCc1cc(-c2nc(-c3cc(F)c(C(=O)NCCC(=O)O)cc3F)no2)ccc1-c1ccccc1C [Example 47]
study-target: UniProt Q99500
unit-string: M
Ki: 5.2e-07
//
compound: Cc1ccccc1-c1ccc(-c2nc(-c3ccc(CN(C)CC(=O)O)c(F)c3)no2)cc1C [Example 131, hydrochloride salt]
study-target: UniProt Q99500
unit-string: M
Ki: 1.98e-06
//
compound: COCc1cc(-c2nc(-c3ccc(CN(C)CC(=O)O)c(Cl)c3)no2)ccc1-c1ccccc1C [Example 128]
study-target: UniProt Q99500
unit-string: M
Ki: 5.66e-07
//
compound: COCc1cc(-c2nc(-c3ccc(CN(C)CC(=O)O)cc3)no2)ccc1-c1cccc(F)c1C [Example 90, hydrochloride salt]
study-target: UniProt Q99500
unit-string: M
Ki: 8.49e-07
//
compound: COCc1cc(-c2nc(-c3cccc(CN(CCO)CCC(=O)O)c3)no2)ccc1-c1ccccc1C [Example 66, hydrochloride salt]
study-target: UniProt Q99500
unit-string: M
Ki: 1.4e-06
//
compound: COCc1cc(-c2nc(-c3ccc(CN(C)CC(=O)O)cc3)no2)ccc1-c1ccccc1C [Example 51, hydrochloride salt]
study-target: UniProt Q99500
unit-string: M
Ki: 9.17e-07
//
compound: COCc1cc(-c2nc(-c3cc(F)cc(CN(C)CCC(=O)O)c3)no2)ccc1-c1ccccc1C [Example 21, hydrochloride salt]
study-target: UniProt Q99500
unit-string: M
Ki: 1.56e-08
//
compound: COCc1cc(-c2nc(-c3cccc(CN(C)CC(O)CO)c3)no2)ccc1-c1ccccc1C (stereo not shown) [Example 39]
study-target: UniProt Q99500
unit-string: M
Ki: 1.18e-06
//
compound: COCc1cc(-c2nc(-c3cccc(CN(C)CC(=O)O)c3)no2)ccc1N1CCCCC1 [Example 29]
study-target: UniProt Q99500
unit-string: M
Ki: 2.38e-07
//
compound: COCc1cc(-c2nc(-c3cc(F)cc(CN(C)CC(=O)O)c3)no2)ccc1-c1ccccc1C [Example 20, hydrochloride salt]
study-target: UniProt Q99500
unit-string: M
Ki: 7.78e-08
//
compound: COCc1cc(-c2nc(-c3ccc(CN(C)CC(=O)O)cc3)no2)ccc1-c1cccc(F)c1Cl [Example 122, hydrochloride salt]
study-target: UniProt Q99500
unit-string: M
Ki: 2.5e-06
//
compound: COCc1cc(-c2nc(-c3cccc(CC(=O)NCCN(C)C)c3)no2)ccc1-c1ccccc1C [Example 41]
study-target: UniProt Q99500
unit-string: M
Ki: 4.3e-06
//
compound: COCc1cc(-c2nc(-c3ccc(CN(C)CC(=O)O)c(F)c3)no2)ccc1-c1cccc(F)c1C [Example 91, hydrochloride salt]
study-target: UniProt Q99500
unit-string: M
Ki: 3.35e-07
//
compound: CCN(CCC(=O)O)Cc1cccc(-c2noc(-c3ccc(-c4ccccc4C)c(COC)c3)n2)c1 [Example 63, hydrochloride salt]
study-target: UniProt Q99500
unit-string: M
Ki: 1.25e-07
//
compound: COCc1cc(-c2nc(-c3cccc(CC(=O)NCCC(=O)O)c3)no2)ccc1-c1ccccc1C [Example 43]
study-target: UniProt Q99500
unit-string: M
Ki: 2e-07
//
compound: COCc1cc(-c2nc(-c3cccc(CC(=O)N(C)CC(=O)O)c3)no2)ccc1-c1ccccc1C [Example 44]
study-target: UniProt Q99500
unit-string: M
Ki: 1.31e-07
//
compound: Cc1ccccc1-c1ccc(-c2nc(-c3cc(F)cc(CN(C)CC(=O)O)c3)no2)cc1C [Example 133, hydrochloride salt]
study-target: UniProt Q99500
unit-string: M
Ki: 4.72e-07
//
compound: COCc1cc(-c2nc(-c3ccc(CN(C)CC(=O)O)c(F)c3)no2)ccc1-c1ccccc1F [Example 55, hydrochloride salt]
study-target: UniProt Q99500
unit-string: M
Ki: 9.2e-08
//
compound: COC(C)c1cc(-c2nc(-c3ccc(CN(C)CC(=O)O)cc3)no2)ccc1-c1ccccc1C (stereo not shown) [Example 140, hydrochloride salt]
study-target: UniProt Q99500
unit-string: M
Ki: 3.89e-07
//
compound: COCc1cc(-c2nc(-c3ccc(CNCC(=O)O)c(F)c3)no2)ccc1-c1ccccc1F [Example 82, hydrochloride salt]
study-target: UniProt Q99500
unit-string: M
Ki: 5.24e-08

---

study-target: S1P1 (Homo sapiens, UniProt P21453)
Sequence (P21453 whole entry, species assumed): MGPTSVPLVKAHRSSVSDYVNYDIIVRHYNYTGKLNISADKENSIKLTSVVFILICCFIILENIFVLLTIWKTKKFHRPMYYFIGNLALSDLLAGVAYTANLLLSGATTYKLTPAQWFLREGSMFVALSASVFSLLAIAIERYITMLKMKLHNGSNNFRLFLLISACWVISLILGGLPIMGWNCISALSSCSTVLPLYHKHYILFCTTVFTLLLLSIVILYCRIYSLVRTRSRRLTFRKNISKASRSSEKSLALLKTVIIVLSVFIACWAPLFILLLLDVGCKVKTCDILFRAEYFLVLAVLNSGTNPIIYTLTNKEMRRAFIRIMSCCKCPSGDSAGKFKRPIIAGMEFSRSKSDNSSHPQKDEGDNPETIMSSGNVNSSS
measurement-notes: 35S-GTPγS binding on membranes of CHO cells expressing S1P1
Assay type: biochemical
particulars: read-out: S1P1/GTPG EC50
Experimental: Membranes were prepared from CHO cells expressing S1P1 or S1P3 for use in ligand and […] binding studies. Cells were suspended in 50 mM TRIS, pH 7.4, 2 mM EDTA, 250 mM Sucrose (buffer A) and 1× Complete protease inhibitor cocktail (Roche), and disrupted at 4° C. by N2 decompression using a cell disruption bomb (Parr Instrument). […] The “potency” or the “activity” of the compounds is determined by the EC50 values as evaluated in the above described 35S-GTPγS binding assay.
pEC50: −log10 of the molar value. Counter-ions that a name gives are not always drawn.
Kindly return rule met if reported pEC50 is no lower than 9; return rule not met if it is lower.

compound: COCc1cc(-c2nc(-c3cccc(CN(C)CC(=O)O)c3)no2)ccc1-c1ccccc1Cl [Example 11, hydrochloride salt]
answer-label: rule not met

compound: COCc1cc(-c2nc(-c3cccc(CC(=O)NCCNC(C)=O)c3)no2)ccc1-c1ccccc1C
answer-label: rule not met

compound: COCc1cc(-c2nc(-c3ccc(OCCO)cc3)no2)ccc1-c1ccccc1C
answer-label: rule not met

compound: CCc1ccccc1-c1ccc(-c2nc(-c3cccc(CNCCC(=O)O)c3)no2)cc1COC [Example 18, hydrochloride salt]
answer-label: rule met

compound: COCc1cc(-c2nc(-c3cccc(CC(=O)NCC(=O)O)c3)no2)ccc1-c1ccccc1C
answer-label: rule not met

compound: Cc1ccccc1-c1ccc(-c2nc(-c3cccc(S(C)(=O)=O)c3)no2)cc1CN(C)C
answer-label: rule not met

compound: COCc1cc(-c2nc(-c3ccc(C(=O)NCCC(=O)O)c(F)c3)no2)ccc1N1CCCCC1C (stereo not drawn)
answer-label: rule not met

compound: COCc1cc(-c2nc(-c3cccc(COCCC(=O)O)c3)no2)ccc1-c1ccccc1C
answer-label: rule not met

compound: COCc1cc(-c2nc(-c3cccc(CN(C)CCC(=O)O)c3)no2)ccc1N1CCCCC1C (stereo not drawn) [Example 2, hydrochloride salt]
answer-label: rule met

compound: CC1CCCCN1c1ccc(-c2nc(-c3cccc(COCCC(=O)O)c3)no2)cc1C(F)(F)F (stereo not drawn) [Example 12, hydrochloride salt]
answer-label: rule not met

compound: COCc1cc(-c2nc(-c3ccc(C(=O)NCC(O)CO)c(F)c3)no2)ccc1-c1ccccc1C (stereo not drawn)
answer-label: rule not met

compound: COCc1cc(-c2nc(-c3ccc(C(=O)NCCC(=O)O)c(Cl)c3)no2)ccc1-c1ccccc1C
answer-label: rule not met

compound: CCc1ccccc1-c1ccc(-c2nc(-c3ccc(C(=O)NCCC(=O)O)c(F)c3)no2)cc1COC
answer-label: rule not met

compound: COCc1cc(-c2nc(-c3cccc(CC(=O)NCC(=O)OC)c3)no2)ccc1-c1ccccc1C
answer-label: rule not met

compound: COCc1cc(-c2nc(-c3cccc(COCCC(=O)O)c3)no2)ccc1N1CCCCC1C (stereo not drawn) [Example 9, hydrochloride salt]
answer-label: rule not met

compound: COCc1cc(-c2nc(-c3cccc(S(C)(=O)=O)c3)no2)ccc1N1CCCCC1C (stereo not drawn) [Example 6, hydrochloride salt]
answer-label: rule not met

compound: COCc1cc(-c2nc(-c3cc(F)c(F)c(OCCCC(=O)O)c3)no2)ccc1-c1ccccc1C
answer-label: rule not met

compound: COCc1cc(-c2nc(-c3cc(F)cc(CN(C)CCC(=O)O)c3)no2)ccc1-c1ccccc1C [Example 21, hydrochloride salt]
answer-label: rule met

The origin of these recorded values is patent US8815919B2.
